Data origin, for the record: ChEMBL document CHEMBL1133528

Target: Human immunodeficiency virus type 1 reverse transcriptase (Human immunodeficiency virus 1) (UniProt Q72547)
Assay: Selectivity index expressed as CC50/EC50
Assay type: functional

{"Smiles": "C#C[C@]1(CO)O[C@@H](n2cnc3c(O)ncnc32)C[C@@H]1O", "Reported Relation": "=", "SI": 14.4}
{"Smiles": "C#C[C@]1(CO)O[C@@H](n2cc(I)c(=O)[nH]c2=O)C[C@@H]1O", "Reported Relation": ">", "SI": 765}
{"Smiles": "C#C[C@]1(CO)O[C@@H](n2ccc(N)nc2=O)C[C@@H]1O", "Reported Relation": "=", "SI": 192}
{"Smiles": "C#C[C@]1(CO)O[C@@H](n2cc(C)c(N)nc2=O)C[C@@H]1O", "Reported Relation": "=", "SI": 63}
{"Smiles": "C#C[C@]1(CO)O[C@@H](n2cnc3c(N)nc(N)nc32)C[C@@H]1O", "Reported Relation": "=", "SI": 2730}
{"Smiles": "C#C[C@]1(CO)O[C@@H](n2cc(Cl)c(=O)[nH]c2=O)C[C@@H]1O", "Reported Relation": "=", "SI": 13.6}
{"Smiles": "C#C[C@]1(CO)O[C@@H](n2cnc3c(N)ncnc32)C[C@@H]1O", "Reported Relation": "=", "SI": 975}
{"Smiles": "C#C[C@]1(CO)O[C@@H](n2cnc3cncnc32)C[C@@H]1O", "Reported Relation": ">", "SI": 3.2}
{"Smiles": "C#C[C@]1(CO)O[C@@H](n2cnc3c(=O)[nH]c(N)nc32)C[C@@H]1O", "Reported Relation": "=", "SI": 1070}
{"Smiles": "C#C[C@]1(CO)O[C@@H](n2cc(Br)c(=O)[nH]c2=O)C[C@@H]1O", "Reported Relation": ">", "SI": 44}
{"Smiles": "C#C[C@]1(CO)O[C@@H](n2cc(F)c(N)nc2=O)C[C@@H]1O", "Reported Relation": ">", "SI": 3330}
{"Smiles": "Cc1cn([C@H]2C[C@H](N=[N+]=[N-])[C@@H](CO)O2)c(=O)[nH]c1=O", "Reported Relation": ">", "SI": 2630}
{"Smiles": "C#C[C@]1(CO)O[C@@H](n2cc(C)c(=O)[nH]c2=O)C[C@@H]1O", "Reported Relation": ">", "SI": 623}
